# System Under Test: ENPP1 (Homo sapiens, UniProt P22413)
# Sequence (P22413 whole entry, species assumed): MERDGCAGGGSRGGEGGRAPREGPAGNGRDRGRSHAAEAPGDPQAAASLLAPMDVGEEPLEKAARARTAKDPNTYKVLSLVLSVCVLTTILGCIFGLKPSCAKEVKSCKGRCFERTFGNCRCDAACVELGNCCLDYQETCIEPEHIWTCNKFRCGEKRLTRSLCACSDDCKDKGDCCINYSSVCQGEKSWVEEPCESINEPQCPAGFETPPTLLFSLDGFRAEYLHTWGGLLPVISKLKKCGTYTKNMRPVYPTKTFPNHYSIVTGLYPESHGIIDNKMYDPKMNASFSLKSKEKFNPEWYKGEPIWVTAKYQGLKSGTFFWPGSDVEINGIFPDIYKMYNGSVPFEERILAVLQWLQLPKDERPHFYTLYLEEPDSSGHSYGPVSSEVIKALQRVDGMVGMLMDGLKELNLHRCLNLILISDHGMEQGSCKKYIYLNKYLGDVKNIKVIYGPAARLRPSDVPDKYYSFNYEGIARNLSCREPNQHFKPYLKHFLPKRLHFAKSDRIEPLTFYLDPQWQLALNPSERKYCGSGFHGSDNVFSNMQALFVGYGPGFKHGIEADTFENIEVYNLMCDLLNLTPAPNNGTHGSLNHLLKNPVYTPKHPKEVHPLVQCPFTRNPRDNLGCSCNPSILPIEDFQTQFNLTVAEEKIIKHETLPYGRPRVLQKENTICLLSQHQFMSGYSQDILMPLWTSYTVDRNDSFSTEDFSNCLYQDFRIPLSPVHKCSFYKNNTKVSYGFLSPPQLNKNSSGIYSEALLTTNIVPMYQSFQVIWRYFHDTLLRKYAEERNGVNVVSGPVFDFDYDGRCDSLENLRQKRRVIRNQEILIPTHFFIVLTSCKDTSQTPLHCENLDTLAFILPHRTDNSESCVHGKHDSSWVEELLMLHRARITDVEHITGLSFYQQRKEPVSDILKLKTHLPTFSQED
Where a name gives a salt, the structure may show the parent alone.
Items are presented alongside their recorded Ki.

Consider the following illustrative entries.
CC(C)c1nc(NCc2ccc(P(=O)(O)O)cc2)c2[nH]ncc2n1 [Compound 18, formic acid salt]	< 1000 nM
CNC(=O)c1c[nH]c2c(N3CCC(CP(=O)(O)O)CC3)ncnc12 [Compound 9]	< 1000 nM

Enter reported Ki observed with ENPP1 (Homo sapiens, UniProt P22413) for CNC(=O)c1c[nH]c2c(NCc3ccc(CP(=O)(O)O)cc3)ncnc12 [Compound 4]
< 1000 nM

Enter reported Ki observed with ENPP1 (Homo sapiens, UniProt P22413) for CCOP(=O)(O)CCCC1CCN(c2ncnc3c(C(=O)NC)c[nH]c23)CC1 [Compound 10]
> 10000 nM

Enter reported Ki observed with ENPP1 (Homo sapiens, UniProt P22413) for CNC(=O)c1c[nH]c2c(NCc3ccc(P(=O)(O)O)cc3)ncnc12 [Compound 3]
< 1000 nM

Enter reported Ki observed with ENPP1 (Homo sapiens, UniProt P22413) for CC(=O)Nc1csc2c(NCc3ccc(P(=O)(O)O)cc3)ncnc12 [Compound 15]
< 100 nM

Enter reported Ki observed with ENPP1 (Homo sapiens, UniProt P22413) for CCOP(=O)(CC1CCN(c2ncnc3c(C(=O)NC)c[nH]c23)CC1)OCC (single isomer, unassigned) [Compound 7]
> 10000 nM

Enter reported Ki observed with ENPP1 (Homo sapiens, UniProt P22413) for O=P(O)(O)c1ccc(CNc2ncnc3ccsc23)cc1 [Compound 16]
< 100 nM

Enter reported Ki observed with ENPP1 (Homo sapiens, UniProt P22413) for CCOP(=O)(O)c1ccc(CNc2ncnc3c(C(=O)NC)c[nH]c23)cc1 [Compound 2]
> 10000 nM
